# System: Candida albicans
# METHOD_SUMMARY: In vitro antifungal activity against Candida albicans
# Assay type: functional
# RUN_PARAMETERS: Candida albicans; read-out: MIC
ASSAY_ENDPOINT: MIC

Study these solved cases before continuing.
COc1ccc(C(=O)C(O)(Cn2cncn2)c2ccc(OC)cc2)cc1 (stereo unspecified)
> 100 µg/mL
CC(O)(c1ccc(Cl)cc1Cl)C(O)(Cn1cncn1)c1ccc(Cl)cc1 (stereo unspecified)
100 µg/mL
OC(c1ccc(F)cc1)C(O)(Cn1cncn1)c1ccc(F)cc1 (stereo unspecified)
> 100 µg/mL
CC(O)(c1ccc(F)cc1)C(O)(Cn1cncn1)c1ccccc1Cl (stereo in doubt; 182)
> 100 µg/mL
O=C(c1ccccc1F)C(O)(Cn1cncn1)c1ccc(Cl)cc1Cl (stereo unspecified)
100 µg/mL

Quote MIC reported for CCC[C@H]1OC(=O)O[C@]1(Cn1cncn1)c1ccc(Cl)cc1 please. > 100 µg/mL

Quote MIC reported for O=C1O[C@H](c2ccc(Cl)cc2Cl)[C@@](Cn2cncn2)(c2ccccc2)O1 please. > 100 µg/mL

Quote MIC reported for Fc1ccc([C@H]2OCO[C@]2(Cn2cncn2)c2ccc(Cl)cc2Cl)cc1 please. > 100 µg/mL

Quote MIC reported for OC(Cc1ccc(Cl)cc1)(c1ccccc1)C(O)(Cn1cncn1)c1ccc(Cl)cc1Cl (stereo unspecified) please. > 100 µg/mL

Quote MIC reported for OC(c1ccccc1)C(O)(Cn1cncn1)c1ccccc1 (stereo unspecified) please. > 100 µg/mL

Quote MIC reported for CC(C)(O)C(O)(Cn1cncn1)c1ccccc1 (stereo unspecified) please. > 100 µg/mL

Quote MIC reported for O=C(c1ccc(F)cc1)C(O)(Cn1cnnc1)c1ccccc1Cl (stereo unspecified) please. > 100 µg/mL

Quote MIC reported for CC(O)(c1ccc(Cl)cc1)C(O)(Cn1cncn1)c1ccc(Cl)cc1 (stereo in doubt; 194) please. 50 µg/mL

Quote MIC reported for CCCC[C@H]1OC(=O)O[C@]1(Cn1cncn1)c1ccc(Cl)cc1Cl please. > 100 µg/mL

Quote MIC reported for CC(C)C(C)(O)C(O)(Cn1cncn1)c1ccccc1 (stereo unspecified) please. > 100 µg/mL

Quote MIC reported for O=C(c1ccccc1)C(O)(Cn1ccnc1)c1ccc(Cl)cc1Cl (stereo unspecified) please. > 100 µg/mL

Quote MIC reported for COc1ccc(C(O)C(O)(Cn2cncn2)c2ccc(OC)cc2)cc1 (stereo unspecified) please. > 100 µg/mL

Quote MIC reported for CC(C)C(O)C(O)(Cn1cncn1)c1ccc(Cl)cc1 (stereo in doubt; 100) please. > 100 µg/mL

Quote MIC reported for O=C(c1ccc(F)cc1)C(O)(Cn1cncn1)c1ccc(Cl)cc1 (stereo unspecified) please. 100 µg/mL

Quote MIC reported for CCCC(O)C(O)(Cn1cncn1)c1ccc(Cl)cc1 (stereo in doubt; 107) please. > 100 µg/mL

Quote MIC reported for CC(O)(c1ccc(F)cc1)C(O)(Cn1cncn1)c1ccc(Cl)cc1Cl (stereo in doubt; 173) please. > 100 µg/mL

====

# Tested on: Candida albicans
# METHOD_SUMMARY: In vitro antifungal activity against Candida albicans
# Assay type: functional
ASSAY_ENDPOINT: MIC (µg/mL)

Study these solved cases before continuing.
OC(c1ccc(Cl)cc1)C(O)(Cn1cncn1)c1ccc(Cl)cc1Cl (stereo in doubt; 109)
100
OC(c1ccc(Cl)cc1)C(O)(Cn1cncn1)c1ccc(Cl)cc1 (stereo in doubt; 88)
50

a. CC(O)(c1ccccc1)C(O)(Cn1cncn1)c1ccc(Cl)cc1Cl (stereo in doubt; 167)
b. CC(O)(c1ccc(Cl)cc1)C(O)(Cn1cncn1)c1ccc(Cl)cc1 (stereo in doubt; 193)
Problem: Given the entries a and b , determine which has the lower reported MIC. Mark your answer with the label of the selected entry. a
(a: 50 µg/mL, b: 100 µg/mL)
